Each entry below lists one item and its recorded TGI value.
tested on: SNB-19 CNS; experiment: NCI tumour cell line growth inhibition, 48 h
Give the value, in units of µM, as a plain number.

| query smiles | units | TGI |
| --- | --- | --- |
| C=C1C(=O)O[C@H]2[C@H]1CC/C(COC(=O)c1ccc(Cl)nc1)=C\CC[C@@]1(C)O[C@@H]21 | µM | 20.1 |

Next:
Incoming: Give recorded TGI. [Au+].[Au+].[Au+].[c-]1nccn1Cc1ccccc1.[c-]1nccn1Cc1ccccc1.[c-]1nccn1Cc1ccccc1
Outgoing: 59

---

tested on: HL-60(TB) leukemia; assay: NCI tumour cell line growth inhibition, 48 h; in the data active = GI50 below about 0.43 µM; inactive = the rest
Respond using exactly one of the listed classes: True = active, False = inactive

Reference set, count: 5
| query smiles | qualitative label |
| --- | --- |
| C[C@]12CCc3nc(Nc4ccccc4)sc3C1=CC[C@@H]1[C@@H]2CC[C@]2(C)/C(=N/NC(N)=S)CC[C@@H]12 | False |
| COc1ccc(-c2oc3cc(O)c(OC)c(O)c3c(=O)c2OC)cc1O | True |
| CN(CCCNC(=O)Cc1ccc2ccc3cccc4ccc1c2c34)CCCNc1cc(-c2ccc3ccccc3c2)nc2ccccc12 | False |
| C[C@]12CC[C@H](O)C[C@H]1CC[C@@H]1[C@@H]2CC[C@]2(C)[C@@H](C3=CC(=O)OC3)CC[C@]12O | True |
| N.N.N.N.[Cl-].[Co+3].[N-]=[N+]=[N-].[N-]=[N+]=[N-] | False |

Continue with the compound presented below.
Incoming: Hi, do you know how COc1ccc(C(=O)COc2cccc(/C=C3\Oc4ccc5ccccc5c4C3=O)c2)cc1 came out in this test?
Outgoing: False

The values you see were collected from PubChem BioAssay (NCI).
